These measurements were taken from patent US20210246204A1.

Molecular target: human Siglec-7 on primary human monocyte-derived dendritic cells (human, UniProt Q9Y286 19-467)
Sequence (Q9Y286 19-467): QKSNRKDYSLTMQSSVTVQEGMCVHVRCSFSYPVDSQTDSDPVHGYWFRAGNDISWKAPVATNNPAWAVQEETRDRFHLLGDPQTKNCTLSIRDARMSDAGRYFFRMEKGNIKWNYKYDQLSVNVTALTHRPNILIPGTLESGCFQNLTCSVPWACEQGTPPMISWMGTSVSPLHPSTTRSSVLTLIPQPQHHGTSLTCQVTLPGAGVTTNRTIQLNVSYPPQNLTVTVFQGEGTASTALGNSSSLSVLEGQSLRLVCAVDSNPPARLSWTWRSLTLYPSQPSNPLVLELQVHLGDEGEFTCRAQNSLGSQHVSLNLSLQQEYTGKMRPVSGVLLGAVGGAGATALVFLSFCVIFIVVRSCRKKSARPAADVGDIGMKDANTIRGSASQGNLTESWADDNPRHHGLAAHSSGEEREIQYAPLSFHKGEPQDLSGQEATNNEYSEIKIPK
Experiment: cell-based or functional assay
What Receptor downregulation, (EC50) (pM) was measured for each of the following?

Any idea what its Receptor downregulation, (EC50) (pM) is? The binder is S7AB-H8.35.2 (antibody, V domains shown) VH: QVQLVQSGAEVKKPGASVKVSCKASGYAFTEAWMNWVRQARGQRLEWIGRIFPGYGHTNYAQKFQGRATLTEDTSTSTAYMELSSLRSEDTAVYYCARDYSDYYFDYWGQGTLVTVSS VL: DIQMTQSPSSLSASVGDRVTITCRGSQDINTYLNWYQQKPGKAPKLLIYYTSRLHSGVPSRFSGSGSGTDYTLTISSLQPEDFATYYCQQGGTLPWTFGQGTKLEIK
205 pM

Any idea what its Receptor downregulation, (EC50) (pM) is? The binder is S7AB-H8.18 (antibody, V domains shown) VH: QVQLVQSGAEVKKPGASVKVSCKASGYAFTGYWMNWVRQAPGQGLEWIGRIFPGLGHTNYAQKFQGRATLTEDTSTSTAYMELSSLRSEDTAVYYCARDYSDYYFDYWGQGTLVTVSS VL: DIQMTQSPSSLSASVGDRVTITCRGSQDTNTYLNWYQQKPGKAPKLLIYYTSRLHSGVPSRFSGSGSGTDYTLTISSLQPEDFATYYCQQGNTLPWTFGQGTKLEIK
67.3 pM
